# assayedSystem: CCR8 (Homo sapiens, UniProt P51685)
# Construct: purchased Promega (in-house HiBiT-GPCR construct library, NanoBRET)
# Sequence (P51685 whole entry): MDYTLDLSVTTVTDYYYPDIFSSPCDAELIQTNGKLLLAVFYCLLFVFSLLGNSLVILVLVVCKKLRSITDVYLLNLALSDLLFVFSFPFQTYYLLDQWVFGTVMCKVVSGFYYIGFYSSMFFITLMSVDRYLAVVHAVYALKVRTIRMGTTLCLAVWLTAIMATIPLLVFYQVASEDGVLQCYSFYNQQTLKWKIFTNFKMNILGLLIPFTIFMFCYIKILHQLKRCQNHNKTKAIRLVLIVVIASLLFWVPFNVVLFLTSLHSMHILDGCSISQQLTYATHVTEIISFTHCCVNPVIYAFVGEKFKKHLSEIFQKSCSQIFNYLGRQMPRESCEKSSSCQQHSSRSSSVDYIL
# methodNotes: NanoBRET screen HiBiT-CCR8 in HEK293
# Format: binding
# statedConditions: CCR8; tracer 1μM
measuredProperty: NanoBRET Fold Response
Number, no unit, nothing else.

Exercise: Which value of NanoBRET Fold Response has been reported for COc1ccccc1N1CCN(CCCCN2C(=O)c3ccc(CNC(=O)CCOCCOCCOCCOCCNC(=O)CCc4ccc5n4[B-](F)(F)[N+]4=C(c6ccc[nH]6)C=CC4=C5)cc3C2=O)CC1 in the records?
Solution: 0.92

Exercise: Which value of NanoBRET Fold Response has been reported for O=C(CCc1ccc2n1[B-](F)(F)[N+]1=C(c3ccc[nH]3)C=CC1=C2)NCc1ccc(C(=O)NCCOCCC(=O)N[C@@H]2CC[C@@]3(O)[C@H]4Cc5ccc(O)c6c5[C@@]3(CCN4CC3CC3)[C@H]2O6)cc1 [Naltrexone-3-NB590] in the records?
Solution: 1.02

Exercise: Which value of NanoBRET Fold Response has been reported for O=C(CCc1ccc2n1[B-](F)(F)[N+]1=C(c3ccc[nH]3)C=CC1=C2)NCCOCCOCCNC(=O)OCCOCCN1CCN(C2=Nc3ccccc3Sc3ccccc32)CC1 in the records?
Solution: 1.16

Exercise: Which value of NanoBRET Fold Response has been reported for O=C(CCOCCOCCOCCOCCNC(=O)CCc1ccc2n1[B-](F)(F)[N+]1=C(c3ccc[nH]3)C=CC1=C2)NCCCN1CCN(C2=Nc3ccccc3Oc3ccc(Cl)cc32)CC1 in the records?
Solution: 1.10

Exercise: Which value of NanoBRET Fold Response has been reported for COc1ccccc1N1CCN(CCCCN2C(=O)c3ccc(CNC(=O)CCOCCNC(=O)c4ccc(CNC(=O)CCc5ccc6n5[B-](F)(F)[N+]5=C(c7ccc[nH]7)C=CC5=C6)cc4)cc3C2=O)CC1 in the records?
Solution: 1.01

Exercise: Which value of NanoBRET Fold Response has been reported for CCCn1c(=O)c2[nH]c(-c3ccc(OCC(=O)NCCNC(=O)CCOCCNC(=O)c4ccc(CNC(=O)CCc5ccc6n5[B-](F)(F)[N+]5=C(c7ccc[nH]7)C=CC5=C6)cc4)cc3)nc2n(CCC)c1=O in the records?
Solution: 0.93

Exercise: Which value of NanoBRET Fold Response has been reported for Cc1cc2c(s1)Nc1ccccc1N=C2N1CCN(CCCNC(=O)CCOCCOCCOCCOCCNC(=O)CCc2ccc3n2[B-](F)(F)[N+]2=C(c4ccc[nH]4)C=CC2=C3)CC1 in the records?
Solution: 0.95

Exercise: Which value of NanoBRET Fold Response has been reported for CC(C)N(CC[C@H](c1ccccc1)c1cc(CCNC(=O)c2ccc(CNC(=O)CCc3ccc4n3[B-](F)(F)[N+]3=C(c5ccc[nH]5)C=CC3=C4)cc2)ccc1O)C(C)C in the records?
Solution: 1.00

Exercise: Which value of NanoBRET Fold Response has been reported for CC(C)N(CC[C@H](c1ccccc1)c1cc(CCNC(=O)CCOCCOCCOCCOCCNC(=O)CCc2ccc3n2[B-](F)(F)[N+]2=C(c4ccc[nH]4)C=CC2=C3)ccc1O)C(C)C in the records?
Solution: 1.07

Exercise: Which value of NanoBRET Fold Response has been reported for N#CN=C(NCCCOc1cccc(CN2CCCCC2)c1)NCCNC(=O)CCOCCOCCOCCOCCNC(=O)CCc1ccc2n1[B-](F)(F)[N+]1=C(c3ccc[nH]3)C=CC1=C2 in the records?
Solution: 0.89

Exercise: Which value of NanoBRET Fold Response has been reported for Cc1nc2n(c(=O)c1CCN1CCC(c3noc4cc(F)ccc34)CC1)CCCC2OC(=O)NCCOCCOCCOCCOCCNC(=O)CCc1ccc2n1[B-](F)(F)[N+]1=C(c3ccc[nH]3)C=CC1=C2 (centres unmarked) in the records?
Solution: 0.89
